# Target under test: SMYD2 (Homo sapiens (Human), UniProt Q9NRG4)
# Sequence (Q9NRG4 whole entry): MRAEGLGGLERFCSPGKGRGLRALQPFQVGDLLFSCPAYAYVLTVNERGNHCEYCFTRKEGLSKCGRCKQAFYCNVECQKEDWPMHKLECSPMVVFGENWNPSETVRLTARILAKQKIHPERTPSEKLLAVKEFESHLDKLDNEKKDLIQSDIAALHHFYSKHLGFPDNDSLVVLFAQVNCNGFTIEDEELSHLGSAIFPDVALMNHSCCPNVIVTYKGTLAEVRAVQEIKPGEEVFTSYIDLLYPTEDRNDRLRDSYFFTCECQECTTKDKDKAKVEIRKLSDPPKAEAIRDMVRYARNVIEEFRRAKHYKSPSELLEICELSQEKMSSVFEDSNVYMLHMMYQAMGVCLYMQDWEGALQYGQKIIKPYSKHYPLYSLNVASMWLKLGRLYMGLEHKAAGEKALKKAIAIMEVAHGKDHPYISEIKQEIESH
# Protocol text: SMYD2 biochemical assay (SMYD2 enzyme assay on peptide substrate, 3H-SAM Flashplate)
# Reported conditions: read-out: SMYD2 Biochem IC50; IC50 values are an average of n = 1 to n = 50
pIC50: −log10 of the molar value.
Experimental readout: pIC50

Study these solved cases before continuing.
> print(dat)
                                   compound                         target.under.test  experimental.readout  result.number
1        CC(C)CN1CC(NC(=O)c2cn(C3CC3)nn2)C1  SMYD2 (Homo sapiens (Human), UniProt Q9NRG4)                 pIC50           5.56
2  CC(c1cccc(OCc2ccccc2)c1)N1CC(NC(=O)c2cn(C3CC3)nn2)C1 (stereo not drawn)  SMYD2 (Homo sapiens (Human), UniProt Q9NRG4)                 pIC50           6.14

I. COc1ccc2c(c1Cl)CCC2N1CC(NC(=O)c2cn(C3CC3)nn2)C1 (stereo not drawn)
II. COCCCOc1ccc(CN2CC(NC(=O)c3cn(C4CC4)nn3)C2)cc1
Response body: label of entry with the larger pIC50; valid values I , II . Your choice should be expressed through its label.
II
(II: 5.52, I: 4.89)

a. NCc1cccc(CN2CC(NC(=O)c3cn(C4CC4)nn3)C2)c1
b. CC(c1ccc2c(cnn2C)c1)N1CC(NC(=O)c2cn(C3CC3)nn2)C1 (stereo not drawn)
// compare measured pIC50, left a , right b , return larger Kindly give the label for the entry you pick.
b
(b: 5.79, a: 5.13)

====

# Target under test: SMYD2 (Homo sapiens (Human), UniProt Q9NRG4)
# Protocol text: SMYD2 biochemical assay (SMYD2 enzyme assay on peptide substrate, 3H-SAM Flashplate)
# Reported conditions: read-out: SMYD2 Biochem IC50; IC50 values are an average of n = 1 to n = 50
Experimental readout: IC50 (µM)

A. O=C(NC1CN(Cc2cnn(CC3CCOCC3)c2)C1)c1cn(C2CC2)nn1
B. CC(c1cccc(OCCN(C)C)c1Cl)N1CC(NC(=O)c2cn(C3CC3)nn2)C1 (stereo not shown)
C. O=C(NC1CN(Cc2cn(CCc3ccccc3)cn2)C1)c1cc(C2CC2)cnn1
D. O=C(NC1CN(Cc2cnn(Cc3ccccc3)c2)C1)c1cn(C2CC2)nn1
// ranking: key=IC50, reverse=True Form entry: labels listed in requested order.
B, A, C, D

====

# Target under test: SMYD3 (Homo sapiens (Human))
# Protocol text: SMYD3 biochemical assay (SMYD3 enzyme assay on MEKK2 protein substrate, 3H-SAM scintillation proximity assay)
# Reported conditions: Table 3A; average of n = 1 to n = 50; read-out: SMYD3 Biochem IC50
# Excerpt: S-adenosylmethionine (SAM), S-adenosylhomocysteine (SAH), Tris, Tween20, dimethylsulfoxide (DMSO), bovine skin gelatin (BSG), and Tris(2-carboxyethyl)phosphine hydrochloride solution (TCEP) were purchased from Sigma-Aldrich at the highest level of purity possible. ^3H-SAM was purchase from American Radiolabeled Chemicals with a specific activity of 80 Ci/mmol. 384-well opaque white OptiPlates and SPA beads (Perkin Elmer, catalog # RPNQ0013) were purchased from PerkinElmer. […]
pIC50: −log10 of the molar value.
Experimental readout: pIC50

A. C[C@H]1CC(NC(=O)c2ccc3c(c2)CC(=O)N3)CCN1S(=O)(=O)c1ccc(C(C)(C)N)cc1 (some centres unmarked)
B. C[C@H]1CN(S(=O)(=O)N2CCC(N)CC2)CCC1NC(=O)c1cc2c(cc1Cl)NC(=O)C2 (some centres unmarked)
C. CC(=O)Nc1ccc(S(=O)(=O)N2CCC(NC(=O)c3ccc4c(c3)CC(=O)N4)CC2)cc1
Highest pIC50 first, then in falling order down to the smallest. Output the labels ranked as instructed.
A, B, C
(A: 8.83, B: 8.07, C: 4.77)

1. C[C@@H]1CN(S(=O)(=O)N2CCC(N)CC2)CC[C@@H]1NC(=O)c1cc2c(cc1Cl)NC(=O)C2
2. NCCCS(=O)(=O)N1CCC(NC(=O)c2ccc3c(c2)CC(=O)N3)CC1
Please tell me which of the two, 1 or 2 , has the higher reported pIC50 value. Return value: the label identifying the chosen record.
2

====

Recorded IC50 by entry
# Target under test: SMYD3 (Homo sapiens (Human))
# Protocol text: SMYD3 biochemical assay (SMYD3 enzyme assay on MEKK2 protein substrate, 3H-SAM scintillation proximity assay)
# Reported conditions: read-out: SMYD3 Biochem IC50

> print(dat)
                                   molecule             target.under.test    result
1      O=C1Cc2cc(C(=O)NC[C@@H]3CCNC3)ccc2N1  SMYD3 (Homo sapiens (Human))   17.9 µM
2  NCCC(=O)N[C@H]1CC[C@H](NC(=O)Cc2cccnc2)CC1  SMYD3 (Homo sapiens (Human))  > 100 µM

# input molecule: `NCCC(=O)N[C@H]1CC[C@H](NC(=O)c2ncccc2O)CC1` ; wanted: its IC50
> 50 µM

Entry under review: `N[C@H]1CC[C@H](NC(=O)c2ccc3c(c2)no[n+]3[O-])CC1` . Reported IC50?
> 100 µM

Which IC50 value belongs to `NCCC(=O)N[C@H]1CC[C@H](NC(=O)c2cccc3[nH]ccc23)CC1` ?
> 100 µM

Item under review: `NCCC(=O)N[C@H]1CC[C@H](NC(=O)c2ccc3c(c2)no[n+]3[O-])CC1` . Reported IC50?
85.1 µM

Requested read-out: IC50. Entry: CC(NC(=O)c1c[nH]c2ccccc12)C1CCN(C(=O)[C@H](C)N)CC1 (stereo partly drawn)
> 100 µM

Record request: IC50 value, item CC(NC(=O)c1cccc2[nH]ccc12)C1CCN(C(=O)[C@H](C)N)CC1 (stereo partly drawn)
> 100 µM

Name the recorded IC50 for `Cc1ncc(C(=O)N[C@H]2CC[C@H](NC(=O)CCN)CC2)cn1` .
35.8 µM

====

# Target under test: SMYD3 (Homo sapiens (Human), UniProt Q9H7B4)
# Sequence (Q9H7B4 whole entry): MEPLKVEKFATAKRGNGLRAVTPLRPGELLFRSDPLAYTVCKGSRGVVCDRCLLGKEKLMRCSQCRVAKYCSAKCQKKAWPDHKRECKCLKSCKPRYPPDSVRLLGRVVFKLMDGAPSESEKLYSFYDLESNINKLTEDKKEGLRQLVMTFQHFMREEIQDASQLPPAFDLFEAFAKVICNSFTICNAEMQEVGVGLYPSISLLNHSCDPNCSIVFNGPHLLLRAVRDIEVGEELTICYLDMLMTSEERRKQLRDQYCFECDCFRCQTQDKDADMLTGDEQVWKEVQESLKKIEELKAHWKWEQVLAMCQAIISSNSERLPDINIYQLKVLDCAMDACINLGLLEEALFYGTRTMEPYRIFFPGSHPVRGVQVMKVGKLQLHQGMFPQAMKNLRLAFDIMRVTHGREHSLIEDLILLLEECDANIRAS
# Protocol text: SMYD3 biochemical assay (SMYD3 enzyme assay on MEKK2 protein substrate, 3H-SAM scintillation proximity assay)
# Reported conditions: read-out: SMYD3 Biochem IC50
Experimental readout: IC50 (µM)

a. NCCC(=O)N[C@H]1CC[C@H](NC(=O)c2ccc3c(c2)CC(=O)N3)CC1
b. Nc1ccnc2ccc(C(=O)N[C@H]3CC[C@H](N)CC3)cc12
// pick larger IC50 from pair: a vs b Answer by quoting the chosen item's label.
b

P. CC(NC(=O)c1ccc2c(c1)C(=O)C(=O)N2)C1CCN(C(=O)[C@H](C)N)CC1 (stereo partly drawn)
Q. Cc1cccc2cc(C(=O)N[C@H]3CC[C@H](N)CC3)[nH]c12
R. COc1ccc2cc(C(=O)N[C@H]3CC[C@H](NC(=O)CCN)CC3)ccc2c1
Give the ascending ranking of the items by reported IC50. Labels, requested order.
P, R, Q
(P: 14.1 µM, R: 28 µM, Q: 68.5 µM)

P. N[C@H]1CC[C@H](NS(=O)(=O)c2ccc3c(c2)CC(=O)N3)CC1
Q. NCCC(=O)N[C@H]1CC[C@H](NC(=O)c2cc3ccccc3nc2O)CC1
Lower value for measured IC50? Options: P , Q Use the label to indicate which entry you chose.
P

====

# Target under test: SMYD2 (Homo sapiens (Human))
# Protocol text: SMYD2 biochemical assay (SMYD2 enzyme assay on peptide substrate, 3H-SAM Flashplate)
# Reported conditions: read-out: SMYD2 Biochem IC50; IC50 values are an average of n = 1 to n = 50
Experimental readout: IC50 (nM)

> print(dat)
                                   compound             target.under.test  result.number
1  CN(C)CCNC(=O)c1cc(C2CC2)cnn1 [compound 869]  SMYD2 (Homo sapiens (Human))          21100

a. CC(c1ccc(OCC(=O)N2CCOCC2)cc1)N1CC(NC(=O)c2cn(C3CC3)nn2)C1 (stereo not drawn) [compound 829]
b. CCC(c1ccc(C(F)(F)F)cc1)N1CC(NC(=O)c2cn(C3CC3)nn2)C1 (stereo not drawn) [compound 700]
c. COc1ccc(COc2ccc(C(C)N3CC(NC(=O)c4cn(C5CC5)nn4)C3)cc2)cc1 (stereo not drawn) [compound 957]
Falling order of IC50, please. In your reply, arrange the labels in the requested order.
b, a, c
(b: 2670 nM, a: 713 nM, c: 160 nM)

P. COc1ccc(C(C)N2CC(NC(=O)c3cn(C4CC4)nn3)C2)cc1OC (stereo not drawn) [compound 698]
Q. CC(c1ccc(OCCN(C)C)cc1)N1CC(NC(=O)c2cn(C3CC3)nn2)C1 (stereo not drawn) [compound 959]
R. CC(c1cccc(OCCO)c1Cl)N1CC(NC(=O)c2cn(C3CC3)nn2)C1 (stereo not drawn) [compound 775]
Rank order required: IC50, descending. Arrange the labels as the request states and list them.
P, Q, R
(P: 3690 nM, Q: 2000 nM, R: 49.4 nM)

P. O=C(NC1CN(Cc2cnn(Cc3nccs3)c2)C1)c1cn(C2CC2)nn1 [compound 991]
Q. CC(c1ccc(OCc2ccccc2)cc1)N1CC(NC(=O)c2cn(C3CC3)nn2)C1 (stereo not drawn) [compound 692]
R. CCCCOc1ccc(C(C)N2CC(NC(=O)c3cn(C4CC4)nn3)C2)cc1 (stereo not drawn) [compound 681]
S. O=C(NC1CN(Cc2ccc3c(c2)C(=O)NC3)C1)c1cn(C2CC2)nn1 [compound 765]
T. CC(c1cccc(Cl)c1Cl)N1CC(NC(=O)c2cn(C3CC3)nn2)C1 (stereo not drawn) [compound 743]
rank_up(items): orders items by reported IC50 in ascending numerical order. Arrange the labels as the request states and list them.
Q, T, P, R, S
(Q: 172 nM, T: 488 nM, P: 760 nM, R: 1290 nM, S: 10200 nM)

I. CC(C)N1CC(NC(=O)c2cn(C3CC3)nn2)C1 [compound 663]
II. CN1CC(NC(=O)c2cc(C3CC3)cnn2)C1 [compound 825]
Hello, I am sorting some records. Could you say if I or II has the smaller IC50 value? Identify your pick by its label.
II
(II: 391 nM, I: 585 nM)
